Could you please report measured IC50 for the items listed next?
biological target: rh beta tryptase (Homo sapiens); test: tryptase inhibition test (cleavage of N-p-tosyl-Gly-Pro-Lys-para-nitroaniline, p-nitroaniline measured at 405 nm); conditions: Tris HCl buffer pH 7.4 with calcium and heparin; substrate 0.6 mM; 5 minutes' pre-incubation, 5 minutes incubation at 37° C.
Sequence (Q15661 31-275): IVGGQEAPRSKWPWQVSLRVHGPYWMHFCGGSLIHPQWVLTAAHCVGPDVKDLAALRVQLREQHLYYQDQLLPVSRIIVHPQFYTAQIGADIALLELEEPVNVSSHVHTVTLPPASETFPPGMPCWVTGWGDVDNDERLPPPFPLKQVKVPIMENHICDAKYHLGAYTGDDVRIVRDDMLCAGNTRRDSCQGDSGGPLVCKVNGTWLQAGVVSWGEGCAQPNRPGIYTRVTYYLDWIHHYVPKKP
Counter-ions that a name gives are not always drawn.
Form entry: value (nM) — number only.

# get_value(readout='IC50', item= Cn1c(CCc2ccc(C(=N)N)cc2)nc2cc(N(Cc3cccc4ccccc34)C(=O)CN3CCC(Cc4ccccc4)CC3)ccc21 )
3.9

Then what about the molecule Cn1c(CCc2ccc(C(=N)N)cc2)nc2cc(N(Cc3ccc4ccccc4c3)C(=O)CCCc3ccc(N)cc3)ccc21 ?
172

Then what about the molecule Cn1c(CCc2ccc(C(=N)N)cc2)nc2cc(N(Cc3ccccc3)C(=O)CCCN)ccc21 [Example 36, dihydrochloride] ?
70

Then what about the molecule COc1ccc(CNCC(=O)N(Cc2ccc3ccccc3c2)c2ccc3c(c2)nc(CCc2ccc(C(=N)N)cc2)n3C)cc1 [Example 57, dihydrochloride] ?
26

Then what about the molecule Cn1c(CCc2ccc(C(=N)N)cc2)nc2cc(N(Cc3cccc4ccccc34)C(=O)CCc3cccc(C(=N)N)c3)ccc21 ?
16

Then what about the molecule Cn1c(CCc2ccc(C(=N)N)cc2)nc2cc(N(Cc3cccc4ccccc34)C(=O)CNCc3ccccc3N)ccc21 [Example 51, trihydrochloride] ?
25

Then what about the molecule Cn1c(CCc2ccc(C(=N)N)cc2)nc2cc(N(Cc3cccc4ccccc34)C(=O)COCc3ccc([N+](=O)[O-])cc3)ccc21 [Example 75, hydrochloride] ?
17.2

Then what about the molecule Cn1c(CCc2ccc(C(=N)N)cc2)nc2cc(N(Cc3ccccc3)C(=O)CCc3cccc(C(=N)N)c3)ccc21 [Example 33, dihydrochloride] ?
26

Then what about the molecule CN(C)CCCCC(=O)N(Cc1ccccc1)c1ccc2c(c1)nc(CCc1ccc(C(=N)N)cc1)n2C ?
53

Then what about the molecule Cn1c(CCc2ccc(C(=N)N)cc2)nc2cc(N(Cc3cccc4ccccc34)C(=O)CNCc3ccc(O)cc3)ccc21 [Example 52, dihydrochloride] ?
12

Then what about the molecule Cn1c(CCc2ccc(C(=N)N)cc2)nc2cc(N(Cc3cccc4ccccc34)C(=O)CCCc3ccc([N+](=O)[O-])cc3)ccc21 ?
11

Then what about the molecule Cn1c(CCc2ccc(C(=N)N)cc2)nc2cc(N(Cc3cccc4ccccc34)C(=O)CCCCNC(=N)N)ccc21 ?
26

Then what about the molecule Cn1c(CCc2ccc(C(=N)N)cc2)nc2cc(N(Cc3cccc4ccccc34)C(=O)Cc3cccc4ccccc34)ccc21 ?
30.1

Then what about the molecule CCOC(=O)C1CCN(CC(=O)N(Cc2cccc3ccccc23)c2ccc3c(c2)nc(CCc2ccc(C(=N)N)cc2)n3C)CC1 ?
15.9

Then what about the molecule Cn1c(CCc2ccc(C(=N)N)cc2)nc2cc(N(Cc3cccc4ccccc34)C(=O)CN3CCN(c4ccccn4)CC3)ccc21 ?
13

The values you see were collected from patent US6407130B1.
